# tested on: hKOR with Gα2 subunit (Homo sapiens)
# Construct: alpha7 nicotinic receptor signal peptide (N); expressed in transfected cells; host or cells: HEK293, transient
# Sequence (P04899 whole entry partner, one chain of several): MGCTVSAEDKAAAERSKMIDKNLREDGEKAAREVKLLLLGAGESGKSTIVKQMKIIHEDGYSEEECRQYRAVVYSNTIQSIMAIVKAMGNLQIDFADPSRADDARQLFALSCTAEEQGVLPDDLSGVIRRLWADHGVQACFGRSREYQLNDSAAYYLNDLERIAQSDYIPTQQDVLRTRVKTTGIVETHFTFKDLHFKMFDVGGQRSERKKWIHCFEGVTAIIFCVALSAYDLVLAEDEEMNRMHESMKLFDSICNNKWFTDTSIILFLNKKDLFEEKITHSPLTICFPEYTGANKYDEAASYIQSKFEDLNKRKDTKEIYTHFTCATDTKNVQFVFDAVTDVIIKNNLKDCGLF
# Sequence (Q9UK08 1-67 partner limits assumed, one chain of several): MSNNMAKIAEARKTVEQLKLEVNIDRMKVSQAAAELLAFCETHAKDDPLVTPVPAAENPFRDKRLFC
# assay summary: TRUPATH (BRET) G-protein dissociation, Gα2 subunit
# Assay type: cell-based
# details: SEM
No end group written: not given here.
quantity: EC50 (nM)
Please state the figure in nM; there is no need to write the unit.

Lookup: Need EC50, item YGGFLWRIRPKLKWDNQ [DynA_R6W]
Found: 78

* * *

# tested on: hKOR with Gα3 subunit (Homo sapiens, UniProt P41145)
# Construct: alpha7 nicotinic receptor signal peptide (N); expressed in transfected cells; host or cells: HEK293, transient
# Sequence (P08754 whole entry partner, one chain of several): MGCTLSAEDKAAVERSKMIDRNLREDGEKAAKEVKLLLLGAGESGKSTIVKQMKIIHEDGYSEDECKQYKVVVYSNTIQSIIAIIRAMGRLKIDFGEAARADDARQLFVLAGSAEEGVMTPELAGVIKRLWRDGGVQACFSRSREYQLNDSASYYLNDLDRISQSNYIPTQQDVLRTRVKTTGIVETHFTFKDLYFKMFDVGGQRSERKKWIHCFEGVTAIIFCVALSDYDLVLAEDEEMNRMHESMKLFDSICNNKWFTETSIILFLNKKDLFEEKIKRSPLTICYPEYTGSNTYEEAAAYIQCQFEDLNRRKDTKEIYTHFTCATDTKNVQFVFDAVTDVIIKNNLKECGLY
# Sequence (O14610 1-66 partner limits assumed, one chain of several): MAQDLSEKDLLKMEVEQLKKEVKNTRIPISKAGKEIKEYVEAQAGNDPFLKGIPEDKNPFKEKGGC
# assay summary: TRUPATH (BRET) G-protein dissociation, Gα3 subunit
# Type: cell-based
# details: EC50, TRUPATH α3 (#, same cell batch), HEK293 with hKOR and Gα3, signal bias series marked #, performed on the same cell batch, mean ± SEM, n = 9
No end group written: not given here.
quantity: pEC50
Convention used: pEC50 is expressed as -log10 of the molar concentration.

# example entries with known answers
• YGGFLWRIRPKLKWDNQ [DynA_R6W] = 6.88
• YGGFLRRICPKLKWDNQ [DynA_R9C] = 7.62

Lookup: Sample YGGFSRRIRPKLKWDNQ [DynA_L5S] — what was its pEC50?
Found: 7.11

* * *

# tested on: hKOR (β-arrestin recruitment) (Homo sapiens)
# Construct: tTA (Tango cassette); expressed in transfected cells; host or cells: HEK293, transient
# Sequence (P32121 whole entry partner, one chain of several): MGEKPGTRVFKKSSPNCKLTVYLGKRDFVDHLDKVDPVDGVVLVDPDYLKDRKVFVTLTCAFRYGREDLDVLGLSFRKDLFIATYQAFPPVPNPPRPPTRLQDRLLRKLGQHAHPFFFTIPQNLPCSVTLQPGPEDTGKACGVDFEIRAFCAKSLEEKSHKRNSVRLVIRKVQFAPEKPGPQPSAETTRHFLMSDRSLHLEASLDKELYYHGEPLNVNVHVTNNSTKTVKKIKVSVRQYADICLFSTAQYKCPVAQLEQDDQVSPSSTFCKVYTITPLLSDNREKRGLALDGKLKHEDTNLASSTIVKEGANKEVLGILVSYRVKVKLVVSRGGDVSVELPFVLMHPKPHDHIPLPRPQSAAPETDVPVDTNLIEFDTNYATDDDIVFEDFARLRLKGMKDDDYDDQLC
# assay summary: PRESTO-Tango β-arrestin recruitment assay
# Type: cell-based
# details: SEM
No end group written: not given here.
Documented pEC50 across a set of sequences
FYI, pEC50 means -log10 of a concentration in mol per litre.

// worked examples, pEC50 included
• YGGFLRRICPKLKWDNQ [DynA_R9C] = 7.06
• YGGFSRRIRPKLKWDNQ [DynA_L5S] = 6.63

Lookup: So what's the measured pEC50 for this one? YGGFLWRIRPKLKWDNQ [DynA_R6W]
Found: 6.17

* * *

# tested on: hKOR with GαZ subunit (Homo sapiens, UniProt P41145)
# Construct: alpha7 nicotinic receptor signal peptide (N); expressed in transfected cells; host or cells: HEK293, transient
# Sequence (P41145 whole entry): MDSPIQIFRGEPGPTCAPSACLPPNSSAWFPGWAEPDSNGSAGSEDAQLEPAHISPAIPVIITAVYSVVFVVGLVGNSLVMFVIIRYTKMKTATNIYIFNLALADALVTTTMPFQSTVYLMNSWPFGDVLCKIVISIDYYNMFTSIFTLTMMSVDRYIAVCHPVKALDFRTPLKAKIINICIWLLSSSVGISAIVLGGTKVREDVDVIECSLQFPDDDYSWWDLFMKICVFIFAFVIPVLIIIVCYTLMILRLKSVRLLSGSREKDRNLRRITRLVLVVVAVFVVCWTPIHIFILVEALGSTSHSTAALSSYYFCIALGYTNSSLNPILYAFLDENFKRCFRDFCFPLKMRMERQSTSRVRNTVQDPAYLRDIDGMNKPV
# Sequence (P19086 whole entry partner): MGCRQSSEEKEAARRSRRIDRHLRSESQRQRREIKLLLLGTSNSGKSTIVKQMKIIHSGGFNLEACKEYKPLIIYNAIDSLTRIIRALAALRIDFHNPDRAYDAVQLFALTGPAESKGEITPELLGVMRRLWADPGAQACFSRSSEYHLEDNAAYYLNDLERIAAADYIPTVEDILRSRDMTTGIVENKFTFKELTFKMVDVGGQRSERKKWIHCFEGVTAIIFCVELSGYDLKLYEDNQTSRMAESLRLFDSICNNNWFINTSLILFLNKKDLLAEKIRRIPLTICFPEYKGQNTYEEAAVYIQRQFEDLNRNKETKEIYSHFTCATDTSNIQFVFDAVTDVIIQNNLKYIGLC
# Sequence (P16520 whole entry partner): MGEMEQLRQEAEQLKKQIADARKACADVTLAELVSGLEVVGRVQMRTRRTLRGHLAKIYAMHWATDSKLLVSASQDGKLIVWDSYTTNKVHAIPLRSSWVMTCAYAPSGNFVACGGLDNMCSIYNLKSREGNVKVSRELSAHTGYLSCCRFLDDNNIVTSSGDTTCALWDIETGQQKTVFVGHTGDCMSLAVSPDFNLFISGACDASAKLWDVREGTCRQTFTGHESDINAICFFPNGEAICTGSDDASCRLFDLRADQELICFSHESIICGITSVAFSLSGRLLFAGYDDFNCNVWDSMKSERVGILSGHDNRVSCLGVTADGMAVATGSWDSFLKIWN
# Sequence (P63211 1-71 partner limits assumed): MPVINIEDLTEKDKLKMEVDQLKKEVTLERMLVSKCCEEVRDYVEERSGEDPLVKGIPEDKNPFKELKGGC
# assay summary: TRUPATH (BRET) G-protein dissociation, GαZ subunit
# Assay type: cell-based
# details: SEM
No end group written: not given here.
quantity: EC50 (nM)
# unit: nM | format: bare number

Lookup: Quick one: EC50 for YGGFLWRIRPKLKWDNQ [DynA_R6W] ?
Found: 27

Provenance of the data: paper PMC8698333
